- tgt: T1, Ebola virus GP with a C-terminal polyhistidine tag (Sino Biologicals, Catalog #40442-V08B1) (Ebola virus, UniProt P87666 33-650)
- T1 construct: also called EbolaGP.his; Ebola virus GP.his
- methodSummary: SPR 37C, mAb captured, pH chase
hey, just use Condition met if measured t½ ratio pH 7.4/pH 6.0 is less than 1, otherwise Condition not met

{"columns": ["binder", "labelValue"],
 "data": [
  ["H1H17199P (antibody, V domains shown) VH: EVQLVESGGGLVQPGGSLRLSCAASGFTFSDHYMVWVRQAPGKGLEWVGRTRNKANSYSTEYAASVKGRFTISRDDSKKSLYLQMNSLKTEDTAVYYCARGGETLWFGESNYGMDVWGQGTTVTVSS VL: EIVLTQSPDTLSLSPGERATLSCRASQSVSSTYLAWYQQKPGQAPSLLIYGASSRATGIPDRFSGSGSGTDFTLTISRLEPEDFAVYYCQQYGRSPLTFGGGTKVEIK", "Condition met"],
  ["H1H17193P (antibody, V domains shown) VH: QVQLVESGGGVVQPGRSLRLSCAASGFTFSSYGIHWVRQAPGKWLEWVAFIWFDGSNKYYADSVKGRFTISRDDSKNTLYLQMNSLRAEDTAVYYCARDGEIFGVLISSDAFDIWGQGTMVTVSS VL: DIQMTQSPSSLSASVGDRVTITCRASRGIRNDLGWFQQKPGKAPKRLIYVASNLQSGVPSRFSGSGSGTEFTLTISSLQPEDFATYYCLQHNSYPITFGQGTRLEIK", "Condition not met"],
  ["H1H17151P (antibody, V domains shown) VH: EVQLVESGGGLVQPGGSLRLSCAASGFTFSSYAMNWVRQAPGKGLEWVSVISGSGGWRNYADSVKGRITISRDNSKNTLYLQMNNLRAEDTAVYYCAKDRGATFGVVILGPPYYGMDVWGQGTTVTVSS VL: DIQMTQSPSSLSASVRDRVTITCRASQSISTYLNWYQQKPGKAPKLLIYAASSLQSGVPSRFSGSGSGTGFTLTISSLQPEDFATYYCQQSYSIPYTFGQGTKLEIK", "Condition met"],
  ["H1M17357N (antibody, V domains shown, also called HCAF09D11-13) VH: QVQLVQSGAEVKKPGASVKVSCKASGYTFTSYYMHWVRQAPGQGLEWMGIINPSGGSTSYAQKFQGRVTMTRDTSTSTVYMELSSLRSEDTAVYYCAREIGEAGEVFNYWGQGTLVTVSS VL: DIQMTQSPSSLSASVGDRVTITCRASQSISRYLNWYQHKPGKAPKVLIYAASILQSGVPSRFSGSGSGTDFTLTISSLQPEDFATYYCQQSYSTPPITFGQGTRLEIK", "Condition met"],
  ["H1M17354N (antibody, V domains shown, also called HCAF05C08-22) VH: QVQLVQSGAEVKKPGASVKVSCKASGYTFTSYYMHWVRQAPGQGLEWLGIINPSGGSTSYAQKFQGRVTMTRDTSTSTVYMELSSLRSEDTAVYYCARETGEAGEVFNYWGQGTQVTVSS VL: DIQMTQSPSSLSASVGDRVTITCRASQIISRYLNWYQHKPGKAPKVLIYAASTLQSGVPSRFSGSGSGTDFTLTISSLQPEDFATYYCQQSYSTPPITFGQGTRLEIK", "Condition not met"]
]}
